Quick reference: IC50 of the listed items.
# SYSTEM NAME: rNaV1.8 (Rattus norvegicus, UniProt Q62968)
# Sequence (Q62968 whole entry): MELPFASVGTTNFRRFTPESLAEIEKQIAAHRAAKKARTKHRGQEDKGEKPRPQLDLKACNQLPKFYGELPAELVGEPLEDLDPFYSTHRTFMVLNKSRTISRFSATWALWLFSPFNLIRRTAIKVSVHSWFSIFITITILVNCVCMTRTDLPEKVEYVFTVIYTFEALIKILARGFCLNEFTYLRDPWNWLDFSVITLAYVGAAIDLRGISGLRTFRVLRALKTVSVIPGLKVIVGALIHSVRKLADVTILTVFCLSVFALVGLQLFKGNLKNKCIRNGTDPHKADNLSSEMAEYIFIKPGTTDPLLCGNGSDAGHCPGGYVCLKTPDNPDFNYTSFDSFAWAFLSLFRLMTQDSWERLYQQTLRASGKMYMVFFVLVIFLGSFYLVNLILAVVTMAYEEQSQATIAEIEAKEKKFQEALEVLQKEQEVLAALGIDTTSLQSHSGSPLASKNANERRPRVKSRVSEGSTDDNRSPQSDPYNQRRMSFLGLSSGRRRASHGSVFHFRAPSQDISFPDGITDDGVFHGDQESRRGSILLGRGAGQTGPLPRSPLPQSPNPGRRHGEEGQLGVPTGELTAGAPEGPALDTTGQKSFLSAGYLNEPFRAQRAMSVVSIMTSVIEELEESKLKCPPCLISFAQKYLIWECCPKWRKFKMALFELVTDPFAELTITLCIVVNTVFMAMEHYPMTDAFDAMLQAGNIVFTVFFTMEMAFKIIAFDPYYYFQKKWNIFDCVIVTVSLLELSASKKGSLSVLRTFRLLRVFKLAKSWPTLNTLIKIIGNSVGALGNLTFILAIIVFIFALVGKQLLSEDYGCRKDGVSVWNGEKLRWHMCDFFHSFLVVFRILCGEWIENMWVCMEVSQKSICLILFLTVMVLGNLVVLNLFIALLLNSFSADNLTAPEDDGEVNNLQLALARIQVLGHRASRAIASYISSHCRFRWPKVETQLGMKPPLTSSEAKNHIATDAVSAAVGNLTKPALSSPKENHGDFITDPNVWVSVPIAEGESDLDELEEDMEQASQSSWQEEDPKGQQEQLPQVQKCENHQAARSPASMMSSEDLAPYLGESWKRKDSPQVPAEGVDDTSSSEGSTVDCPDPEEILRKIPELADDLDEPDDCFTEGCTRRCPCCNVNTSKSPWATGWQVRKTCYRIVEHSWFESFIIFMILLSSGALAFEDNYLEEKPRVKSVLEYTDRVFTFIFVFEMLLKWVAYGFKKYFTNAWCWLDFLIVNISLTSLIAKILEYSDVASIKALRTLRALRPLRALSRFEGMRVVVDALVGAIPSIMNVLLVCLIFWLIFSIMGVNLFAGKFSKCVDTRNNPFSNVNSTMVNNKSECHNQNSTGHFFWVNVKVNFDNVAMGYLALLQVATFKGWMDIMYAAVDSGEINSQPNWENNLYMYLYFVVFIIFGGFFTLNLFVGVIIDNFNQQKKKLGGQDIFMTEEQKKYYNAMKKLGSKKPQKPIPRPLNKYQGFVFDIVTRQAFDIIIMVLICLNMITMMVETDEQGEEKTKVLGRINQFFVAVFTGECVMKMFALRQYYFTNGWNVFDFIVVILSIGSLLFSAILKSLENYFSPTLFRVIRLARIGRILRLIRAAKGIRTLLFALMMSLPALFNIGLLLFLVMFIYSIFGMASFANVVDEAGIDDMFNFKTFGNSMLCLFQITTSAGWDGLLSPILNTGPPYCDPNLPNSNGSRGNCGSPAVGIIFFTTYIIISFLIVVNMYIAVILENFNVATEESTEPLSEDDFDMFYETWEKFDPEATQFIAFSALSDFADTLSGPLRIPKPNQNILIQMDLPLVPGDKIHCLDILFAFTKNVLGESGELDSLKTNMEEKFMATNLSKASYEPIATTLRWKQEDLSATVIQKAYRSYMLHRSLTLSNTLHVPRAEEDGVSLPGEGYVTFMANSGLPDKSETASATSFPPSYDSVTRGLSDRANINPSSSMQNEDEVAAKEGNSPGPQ
Where a SMILES comes first, the peptide text is derived from it. Bridges are numbered along the chain shown (N, C = ends).

COMPOUND	SYSTEM NAME	RESULT
C[C@@H]1NC(=O)[C@H](Cc2ccc(O)cc2)NC(=O)[C@H](CCCNC(=N)N)NC(=O)[C@H](CCCNC(=N)N)NC(=O)[C@@H](N)CSSC[C@@H](C(N)=O)NC(=O)[C@H](CCCNC(=N)N)NC(=O)[C@H](CC(N)=O)NC(=O)[C@H](Cc2c[nH]c3ccccc23)NC(=O)[C@H](CCCNC(=N)N)NC1=O [PnCS1[W4Y], CRRYARWNRC ^*] (H-CRRYARWNRC-NH2; disulfide 1-10)	rNaV1.8 (Rattus norvegicus, UniProt Q62968)	> 100 µM

Consider now this further compound.
IC50 recorded for this compound, N=C(N)NCCC[C@@H]1NC(=O)[C@H](CC(N)=O)NC(=O)[C@H](Cc2c[nH]c3ccccc23)NC(=O)[C@H](CCCNC(=N)N)NC(=O)[C@H](CCC(=O)O)NC(=O)[C@H](Cc2c[nH]c3ccccc23)NC(=O)[C@H](CCCNC(=N)N)NC(=O)[C@H](CCCNC(=N)N)NC(=O)[C@@H](N)CSSC[C@@H](C(N)=O)NC1=O [PnCS1[A5E], CRRWERWNRC ^*] (H-CRRWERWNRC-NH2; disulfide 1-10) , is > 100 µM

----------
# SYSTEM NAME: mNaV1.6 (Mus musculus, UniProt Q9WTU3)
# Sequence (Q9WTU3 whole entry): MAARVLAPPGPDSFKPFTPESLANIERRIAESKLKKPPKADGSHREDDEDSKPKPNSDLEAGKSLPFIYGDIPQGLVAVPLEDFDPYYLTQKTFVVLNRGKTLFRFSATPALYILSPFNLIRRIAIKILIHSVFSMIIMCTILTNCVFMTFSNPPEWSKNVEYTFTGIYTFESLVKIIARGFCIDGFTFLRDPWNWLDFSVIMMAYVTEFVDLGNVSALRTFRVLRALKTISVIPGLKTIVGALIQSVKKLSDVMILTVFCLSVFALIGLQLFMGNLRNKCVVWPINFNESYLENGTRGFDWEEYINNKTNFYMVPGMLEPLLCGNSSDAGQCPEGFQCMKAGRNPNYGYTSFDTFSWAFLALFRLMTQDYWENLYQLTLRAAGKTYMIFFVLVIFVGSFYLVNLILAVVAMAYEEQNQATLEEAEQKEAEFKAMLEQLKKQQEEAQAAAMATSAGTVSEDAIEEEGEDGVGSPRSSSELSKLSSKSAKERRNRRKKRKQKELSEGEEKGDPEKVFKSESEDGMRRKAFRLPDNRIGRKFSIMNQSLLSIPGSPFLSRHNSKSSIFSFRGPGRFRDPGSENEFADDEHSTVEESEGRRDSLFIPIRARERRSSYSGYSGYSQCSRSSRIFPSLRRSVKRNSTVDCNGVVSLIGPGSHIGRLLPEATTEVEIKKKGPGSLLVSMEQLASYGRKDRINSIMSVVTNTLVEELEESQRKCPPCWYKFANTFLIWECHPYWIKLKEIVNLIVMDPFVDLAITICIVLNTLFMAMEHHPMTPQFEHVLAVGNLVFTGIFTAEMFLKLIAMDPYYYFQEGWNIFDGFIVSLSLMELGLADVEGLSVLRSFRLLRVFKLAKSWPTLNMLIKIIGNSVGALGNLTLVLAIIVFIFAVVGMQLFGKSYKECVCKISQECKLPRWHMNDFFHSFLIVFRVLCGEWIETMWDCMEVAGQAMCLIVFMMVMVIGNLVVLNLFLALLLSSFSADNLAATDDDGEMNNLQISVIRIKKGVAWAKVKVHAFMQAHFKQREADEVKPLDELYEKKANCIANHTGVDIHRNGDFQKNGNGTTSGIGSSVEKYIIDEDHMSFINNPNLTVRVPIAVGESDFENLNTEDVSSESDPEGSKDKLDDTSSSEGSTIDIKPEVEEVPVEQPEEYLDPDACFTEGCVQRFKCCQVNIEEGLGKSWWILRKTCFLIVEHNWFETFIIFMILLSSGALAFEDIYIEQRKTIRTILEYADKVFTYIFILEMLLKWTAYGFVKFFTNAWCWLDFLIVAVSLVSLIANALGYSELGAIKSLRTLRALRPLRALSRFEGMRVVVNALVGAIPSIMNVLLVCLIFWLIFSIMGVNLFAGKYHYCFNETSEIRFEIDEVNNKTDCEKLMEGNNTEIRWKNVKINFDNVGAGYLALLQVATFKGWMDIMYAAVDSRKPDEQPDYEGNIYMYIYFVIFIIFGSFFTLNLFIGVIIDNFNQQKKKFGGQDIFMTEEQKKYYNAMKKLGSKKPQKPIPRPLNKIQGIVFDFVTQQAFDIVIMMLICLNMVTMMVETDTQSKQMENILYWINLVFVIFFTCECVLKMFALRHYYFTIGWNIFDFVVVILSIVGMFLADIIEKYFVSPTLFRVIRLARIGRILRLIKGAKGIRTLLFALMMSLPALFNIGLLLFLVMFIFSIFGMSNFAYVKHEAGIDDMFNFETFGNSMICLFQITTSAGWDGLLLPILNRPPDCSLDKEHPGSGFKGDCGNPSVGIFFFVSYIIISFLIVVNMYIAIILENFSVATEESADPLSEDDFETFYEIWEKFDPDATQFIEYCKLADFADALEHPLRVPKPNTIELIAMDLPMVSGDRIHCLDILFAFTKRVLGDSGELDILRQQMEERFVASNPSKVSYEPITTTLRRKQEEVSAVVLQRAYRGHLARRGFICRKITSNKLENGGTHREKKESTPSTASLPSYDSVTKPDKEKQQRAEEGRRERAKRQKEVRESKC
# EXPERIMENT: Two-electrode voltage-clamp on Xenopus laevis oocytes expressing NaV1.6
# EXPERIMENTAL PARAMETERS: read-out: Maximum % inhibition NaV1.6, peptide at 100 μM
Where a SMILES comes first, the peptide text is derived from it. Bridges are numbered along the chain shown (N, C = ends).
Quick reference: inhibition at 100 µM of the listed items.
Please state the figure in %; there is no need to write the unit.

inhibition at 100 µM recorded for this compound, C[C@@H]1NC(=O)[C@H](Cc2c[nH]c3ccccc23)NC(=O)[C@H](CCCNC(=N)N)NC(=O)[C@H](CCCNC(=N)N)NC(=O)[C@@H](N)CSSC[C@@H](C(=O)O)NC(=O)[C@H](CCCNC(=N)N)NC(=O)[C@H](CC(N)=O)NC(=O)[C@H](Cc2c[nH]c3ccccc23)NC(=O)[C@H](CCCNC(=N)N)NC1=O [PnCS1DeAm, CRRWARWNRC] (H-CRRWARWNRC-OH; disulfide 1-10) , is 24

inhibition at 100 µM recorded for this compound, C[C@@H]1NC(=O)[C@H](Cc2c[nH]c3ccccc23)NC(=O)[C@H](CCCNC(=N)N)NC(=O)[C@H](CCCNC(=N)N)NC(=O)[C@@H](N)CSSC[C@@H](C(N)=O)NC(=O)[C@H](CCCNC(=N)N)NC(=O)[C@H](CC(N)=O)NC(=O)[C@H](Cc2c[nH]c3ccccc23)NC(=O)[C@H](CCCCN)NC1=O [PnCS1[R6K], CRRWAKWNRC ^*] (H-CRRWAKWNRC-NH2; disulfide 1-10) , is 88

----------
# SYSTEM NAME: mNaV1.6 (Mus musculus)
# EXPERIMENT: Two-electrode voltage-clamp on Xenopus laevis oocytes expressing NaV1.6
Where a SMILES comes first, the peptide text is derived from it. Bridges are numbered along the chain shown (N, C = ends).
OBSERVATION TYPE: pIC50
# pIC50: negative log10 of molar concentration; output just the value

COMPOUND	pIC50
C[C@@H]1NC(=O)[C@H](Cc2c[nH]c3ccccc23)NC(=O)[C@H](CCCNC(=N)N)NC(=O)[C@H](CCCNC(=N)N)NC(=O)[C@@H](N)CSSC[C@@H](C(N)=O)NC(=O)[C@H](CCCNC(=N)N)NC(=O)[C@H](CC(N)=O)NC(=O)[C@H](Cc2c[nH]c3ccccc23)NC(=O)[C@H](CCCNC(=N)N)NC1=O [PnCS1, CRRWARWNRC ^*] (H-CRRWARWNRC-NH2; disulfide 1-10)	6.15

Consider now this further compound.
pIC50 recorded for this compound, C[C@@H]1NC(=O)[C@H](Cc2c[nH]c3ccccc23)NC(=O)[C@H](C)NC(=O)[C@H](CCCNC(=N)N)NC(=O)[C@@H](N)CSSC[C@@H](C(N)=O)NC(=O)[C@H](CCCNC(=N)N)NC(=O)[C@H](CC(N)=O)NC(=O)[C@H](Cc2c[nH]c3ccccc23)NC(=O)[C@H](CCCNC(=N)N)NC1=O [PnCS1[R3A], CRAWARWNRC ^*] (H-CRAWARWNRC-NH2; disulfide 1-10) , is 5.72
